Biological target: MAO-A (Homo sapiens, UniProt P21397)
Sequence (P21397 whole entry): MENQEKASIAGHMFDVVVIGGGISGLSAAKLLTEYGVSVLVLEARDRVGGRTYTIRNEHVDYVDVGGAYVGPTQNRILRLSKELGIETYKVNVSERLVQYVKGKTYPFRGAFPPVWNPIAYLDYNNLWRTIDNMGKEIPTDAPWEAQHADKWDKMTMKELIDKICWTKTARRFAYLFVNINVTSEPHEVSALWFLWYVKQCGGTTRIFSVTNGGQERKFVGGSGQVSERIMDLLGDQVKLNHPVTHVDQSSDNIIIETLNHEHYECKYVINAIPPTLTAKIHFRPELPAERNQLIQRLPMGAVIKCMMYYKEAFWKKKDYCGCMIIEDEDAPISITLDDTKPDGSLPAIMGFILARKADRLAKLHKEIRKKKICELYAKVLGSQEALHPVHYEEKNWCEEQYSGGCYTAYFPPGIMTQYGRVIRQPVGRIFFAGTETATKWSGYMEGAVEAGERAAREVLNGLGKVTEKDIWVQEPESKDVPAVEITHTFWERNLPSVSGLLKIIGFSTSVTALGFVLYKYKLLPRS
measurement_type: Ki (nM)
Respond numerically; units are nM and should not be typed.

Req: Field request: Ki | item: `CN1CCN(c2ccc(C=NNc3nc(-c4ccc([N+](=O)[O-])cc4)cs3)cc2)CC1`
Resp: 11

###

Exercise: state measured inhibition at 1000 µM for each of the compounds provided.
Molecular target: MAO-A (Homo sapiens, UniProt P21397)
Construct: purchased Sigma-Aldrich (Steinheim, Germany)
Experiment: In vitro fluorometric MAO-A inhibition assay (Ampliflu Red, tyramine)
Assay type: biochemical
Settings: 10^−3 M
Numeric answer only, unit % assumed.

Req: For the compound `CN1CCN(c2ccc(C=NNc3nc(-c4ccc(Br)cc4)cs3)cc2)CC1` , what inhibition at 1000 µM is on record?
Resp: 70.8

Req: Then `CN1CCN(c2ccc(C=NNc3nc(-c4ccc(F)cc4F)cs3)cc2)CC1` ?
Resp: 80

Req: Further, for `CN1CCN(c2ccc(C=NNc3nc(-c4ccc(C#N)cc4)cs3)cc2)CC1` ?
Resp: 90.2

Req: Note, next up: `CN1CCN(c2ccc(C=NNc3nc(-c4ccc(F)cc4)cs3)cc2)CC1`
Resp: 75.9

Req: Next compound up: `CN1CCN(c2ccc(C=NNc3nc(-c4ccc(Cl)cc4)cs3)cc2)CC1`
Resp: 73.7

Req: Field entry: `Cc1ccc(-c2csc(NN=Cc3ccc(N4CCN(C)CC4)cc3)n2)c(C)c1`
Resp: 72.3

Req: Another compound to check: `CN1CCN(c2ccc(C=NNc3nc(-c4ccccc4)cs3)cc2)CC1`
Resp: 68.1

Req: Let us now turn to `Cc1ccc(-c2csc(NN=Cc3ccc(N4CCN(C)CC4)cc3)n2)cc1`
Resp: 71

Req: Further, for `COc1ccc(-c2csc(NN=Cc3ccc(N4CCN(C)CC4)cc3)n2)cc1` ?
Resp: 92.1

Req: Please answer likewise for `CN1CCN(c2ccc(C=NNc3nc(-c4ccc([N+](=O)[O-])cc4)cs3)cc2)CC1`
Resp: 95.3

Req: Param item: `CN1CCN(c2ccc(C=NNc3nc(-c4ccc(-c5ccccc5)cc4)cs3)cc2)CC1`
Resp: 66.2

###

Kindly supply the reported inhibition at 100 µM values for the records listed here.
Biological target: MAO-A (Homo sapiens)
Construct: purchased Sigma-Aldrich (Steinheim, Germany)
Assay: In vitro fluorometric MAO-A inhibition assay (Ampliflu Red, tyramine)
Format: biochemical
Settings: 10^−4 M

Req: Find inhibition at 100 µM (MAO-A (Homo sapiens)) for the entry `CN1CCN(c2ccc(C=NNc3nc(-c4ccc([N+](=O)[O-])cc4)cs3)cc2)CC1`
Resp: 90.8%

Req: Again, but for `CN1CCN(c2ccc(C=NNc3nc(-c4ccc(-c5ccccc5)cc4)cs3)cc2)CC1`
Resp: 41.5%

Req: Same lookup for `CN1CCN(c2ccc(C=NNc3nc(-c4ccc(Cl)cc4)cs3)cc2)CC1` , please.
Resp: 33.5%

Req: What do we get for `Cc1ccc(-c2csc(NN=Cc3ccc(N4CCN(C)CC4)cc3)n2)c(C)c1` ?
Resp: 38.1%

Req: Ok, now `CN1CCN(c2ccc(C=NNc3nc(-c4ccc(F)cc4)cs3)cc2)CC1`
Resp: 40.7%

Req: Would you kindly repeat that for `COc1ccc(-c2csc(NN=Cc3ccc(N4CCN(C)CC4)cc3)n2)cc1` ?
Resp: 87.7%

Req: Let us now turn to `CN1CCN(c2ccc(C=NNc3nc(-c4ccc(F)cc4F)cs3)cc2)CC1`
Resp: 35.1%

Req: Field entry: `CN1CCN(c2ccc(C=NNc3nc(-c4ccc(Br)cc4)cs3)cc2)CC1`
Resp: 37.9%
